Provenance of the data: the supplement of paper PMC9170038

# Tested on: MS2 coat protein
# PROTOCOL_NOTES: apparent KD of MS2 coat protein; higher = weaker reporter binding
# CONDITION_PARAMETERS: Eterna round: R107; input ligand: theophylline 20 uM
PROPERTY: apparent KD of MS2 coat protein

# annotated cases, reported apparent KD of MS2 coat protein shown
POLYMER_SEQUENCE	READING
GAUGAUAUUGCAGAUACCAGACACAUGAGGAUCACCCAUGUCGCUGAGUUGCUGGAUCGUGUCCCUUGGCAGCUGCGAUAUCAUC [Belgium]	38.5 nM
AGUGUUGUAACUGAUACCAGACCUUUGCUUAUACAUGAGGAUCACCCAUGUAAAAUGGCGGUCCCUUGGCAGCAGAGAAGACGCA [#10 Same State - Theophylline B]	27 nM

Prompt: Query the reported apparent KD of MS2 coat protein for MS2 coat protein; item: CCUAUGACAUGAGGAUCACCCAUGUUGGAUACCAGCGCAUGAGGACGCCCUUGGCAGCCAAUGAACAUGAGGAUACAUGAGGAUC [Same State Theophylline A 4]
Completion: 69.7 nM

Prompt: And the next one, GCUAGGUCUACGGCCGCCACUAGACGUGGGUAAGACAUGAGGAUCACCCAUGUACUACGGGCGAUUAGGACCGGGUAGACCUAGC [SSTB NP+V+V2 #16 Same Structure] ?
Completion: 527 nM

Prompt: And the next one, AGUCUUAAAGGAAGGAGCGCAAUCAUAACAUGAGGAUCACCCAUGUCGAGGUGAGGGUCAUUGCAGGUAGGUCGCCUUACUAAGA [Same State - Arginine B (Freestyle 7)] ?
Completion: 88.7 nM

Prompt: And the next one, ACCGCAUCCGUAUAGGAUGCGGCCCAUGAAGGAGCGUGGGAAACCACAGGUAGGUCGCAUGGAUUACAUGAGGAUCACCCAUGUG [Skyfall] ?
Completion: 378 nM
